test: qHTS Assay for Compounds Blocking the Interaction Between CBF-beta and RUNX1 for the Treatment of Acute Myeloid Leukemia: Zebrafish assay for Hematopoiesis, SAR for Probe; conditions: GFP-cd41 zebrafish embryos, microscopy, 5 days, at 25 µM
Records with an inconclusive call do not appear. Active and inactive are the calls of the source.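 The calls were made as follows: active = fewer circulating green fluorescent tagged thrombocytes in treated fish, with no visible harm to the embryos; inconclusive = compound visibly harmful to the embryos; inactive = no drop in circulating tagged thrombocytes.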
Hi! Could you answer with just one of these? TRUE = active, FALSE = inactive

# count of solved cases: 5
Sample Smiles | Label Value
CC(C)(N)C(=O)Nc1ccc(Cl)cc1C(=O)c1ccc[nH]1 | FALSE
NC(N)=NCCC[C@H](N)C(=O)Nc1ccc(Cl)cc1C(=O)c1ccc[nH]1 | FALSE
N[C@@H](Cc1ccccc1)C(=O)Nc1ccc(Cl)cc1C(=O)c1ccc[nH]1 | FALSE
NCCCC(=O)Nc1ccc(Cl)cc1C(=O)c1ccc[nH]1 | FALSE
NC(=O)C[C@H](N)C(=O)Nc1ccc(Cl)cc1C(=O)c1ccc[nH]1 | FALSE

[in] So what was the verdict on `NCCC(=O)Nc1ccc(Cl)cc1C(=O)c1ccc[nH]1` in this test?
[out] FALSE

[in] So what was the verdict on `NCCCC[C@H](N)C(=O)Nc1ccc(Cl)cc1C(=O)c1ccc[nH]1` in this test?
[out] FALSE

[in] So what was the verdict on `CCC(=O)Nc1ccc(Cl)cc1C(=O)c1ccc[nH]1` in this test?
[out] FALSE

[in] So what was the verdict on `CN(C)CC(=O)Nc1ccc(Cl)cc1C(=O)c1ccc[nH]1` in this test?
[out] TRUE

[in] So what was the verdict on `CC(C)[C@H](N)C(=O)Nc1ccc(Cl)cc1C(=O)c1ccc[nH]1` in this test?
[out] FALSE
